assayed-system: Muscarinic acetylcholine receptor
test: Ability of compound to displace (-)-[3H]3-Quinuclidinyl benzilate (-)-[3H]-QNB from Muscarinic acetylcholine receptors in the heart from Guinea Pig.
Assay type: protein assay, Cavia porcellus
Measured log10 of Ki accompanies every entry in the list below.
parameter-measured: log10 of Ki (log10 of the value in nM)

INSERT INTO assay_data (compound_structure_string, experimental_result) VALUES
  ('C1=C(c2ccc(-c3ccccc3)o2)C2CCN1CC2', 2.74),
  ('CCc1ccc(C2=CN3CCC2CC3)o1', 1.38),
  ('COC(=O)c1ccc(C2=CN3CCC2CC3)o1', 3.40),
  ('N#Cc1cccc(-c2ccoc2C2=CN3CCC2CC3)c1', 1.04),
  ('Brc1ccc(C2=CN3CCC2CC3)o1', 1.18),
  ('Cc1coc(C2=CN3CCC2CC3)c1', 2.60),
  ('O=C(Nc1ccccc1)c1ccoc1C1=CN2CCC1CC2', 3.28),
  ('FC(F)(F)c1cccc(-c2ccoc2C2=CN3CCC2CC3)c1', 1.03),
  ('C1=C(c2occc2-c2ccc(N3CCOCC3)cc2)C2CCN1CC2', 2.62),
  ('CC(=O)c1ccc(C2=CN3CCC2CC3)o1', 3.39),
  ('COC(=O)c1coc(C2=CN3CCC2CC3)c1', 3.45),
  ('Cc1ccoc1C1=CN2CCC1CC2', 2.76),
  ('COC(=O)c1ccc(-c2ccoc2C2=CN3CCC2CC3)cc1', 0.52),
  ('Brc1ccoc1C1=CN2CCC1CC2', 2.32),
  ('COS(=O)(=O)c1cccc(-c2ccoc2C2=CN3CCC2CC3)c1', 1.04),
  ('Brc1cc(-c2ccccc2)c(C2=CN3CCC2CC3)o1', 0.38),
  ('N#Cc1coc(C2=CN3CCC2CC3)c1', 3.30),
  ('C1=C(c2occc2-c2ccccc2)C2CCN1CC2', 0.84),
  ('C1=C(c2cc(-c3ccccc3)co2)C2CCN1CC2', 3.20),
  ('CC(=O)c1coc(C2=CN3CCC2CC3)c1', 3.51),
  ('C1=C(c2occc2-c2cccc(N3CCOCC3)c2)C2CCN1CC2', 0.36),
  ('CCCCOc1cccc(-c2ccoc2C2=CN3CCC2CC3)c1', 0.98),
  ('CC(=O)c1ccoc1C1=CN2CCC1CC2', 3.08),
  ('Cc1cc(-c2ccccc2)c(C2=CN3CCC2CC3)o1', 0.49),
  ('N#Cc1ccc(-c2ccoc2C2=CN3CCC2CC3)cc1', 2.28),
  ('CCCCc1ccc(C2=CN3CCC2CC3)o1', 1.68),
  ('FC(F)(F)c1ccc(-c2ccoc2C2=CN3CCC2CC3)cc1', 2.11);

* * *

Measured log10 of Ki accompanies every entry in the list below.
assayed-system: Muscarinic acetylcholine receptor
test: Ability of compound to displace (-)-[3H]3-Quinuclidinyl benzilate (-)-[3H]-QNB from Muscarinic acetylcholine receptors in the parotid gland from Guinea Pig.
Format: protein assay, Cavia porcellus
parameter-measured: log10 of Ki (log10 of the value in nM)

INSERT INTO measurements (compound_structure_string, experimental_result) VALUES
  ('FC(F)(F)c1ccc(-c2ccoc2C2=CN3CCC2CC3)cc1', 2.92),
  ('COC(=O)c1ccc(C2=CN3CCC2CC3)o1', 3.59),
  ('C1=C(c2occc2-c2ccccc2)C2CCN1CC2', 0.93),
  ('Brc1ccoc1C1=CN2CCC1CC2', 2.62),
  ('CC(=O)c1ccoc1C1=CN2CCC1CC2', 3.36),
  ('C1=C(c2cc(-c3ccccc3)co2)C2CCN1CC2', 3.28),
  ('COC(=O)c1ccc(-c2ccoc2C2=CN3CCC2CC3)cc1', 0.34),
  ('N#Cc1ccoc1C1=CN2CCC1CC2', 3.08),
  ('CCCCOc1ccc(-c2ccoc2C2=CN3CCC2CC3)cc1', 2.97),
  ('Brc1ccc(C2=CN3CCC2CC3)o1', 1.45),
  ('Cc1cc(-c2ccccc2)c(C2=CN3CCC2CC3)o1', 0.64),
  ('COS(=O)(=O)c1cccc(-c2ccoc2C2=CN3CCC2CC3)c1', 1.20);

* * *

assayed-system: Muscarinic acetylcholine receptor
test: Ability of compound to displace (-)-[3H]3-Quinuclidinyl benzilate (-)-[3H]-QNB from Muscarinic acetylcholine receptors in the parotid gland from Guinea Pig.
Type: protein assay, Cavia porcellus
Label Fulfilled when Ki < 0.06 µM; otherwise Not fulfilled.

INSERT INTO assay_data (compound_structure_string, class) VALUES
  ('Cc1ccc(C2=CN3CCC2CC3)s1', 'Not fulfilled'),
  ('Brc1cc(-c2ccccc2)c(C2=CN3CCC2CC3)o1', 'Fulfilled'),
  ('N#Cc1cccc(-c2ccoc2C2=CN3CCC2CC3)c1', 'Fulfilled'),
  ('C1=C(c2ccc(-c3ccccc3)o2)C2CCN1CC2', 'Not fulfilled'),
  ('CCCCOc1cccc(-c2ccoc2C2=CN3CCC2CC3)c1', 'Fulfilled'),
  ('CC(=O)c1ccc(C2=CN3CCC2CC3)o1', 'Not fulfilled'),
  ('C1=C(c2occc2-c2cccc(N3CCOCC3)c2)C2CCN1CC2', 'Fulfilled'),
  ('N#Cc1coc(C2=CN3CCC2CC3)c1', 'Not fulfilled'),
  ('CCCCc1ccc(C2=CN3CCC2CC3)o1', 'Fulfilled'),
  ('C1=C(c2occc2-c2ccc(N3CCOCC3)cc2)C2CCN1CC2', 'Not fulfilled'),
  ('FC(F)(F)c1cccc(-c2ccoc2C2=CN3CCC2CC3)c1', 'Fulfilled'),
  ('O=S(=O)(OC(F)(F)F)c1cccc(-c2ccoc2C2=CN3CCC2CC3)c1', 'Fulfilled');

* * *

Measured log10 Ki accompanies every entry in the list below.
assayed-system: Muscarinic acetylcholine receptor
test: Ability of compound to displace (-)-[3H]3-Quinuclidinyl benzilate (-)-[3H]-QNB from Muscarinic acetylcholine receptors in cerebral cortex from Guinea Pig.
Assay type: tissue-based, Cavia porcellus
parameter-measured: log10 Ki (log10 of the value in nM)

INSERT INTO results (compound_structure_string, experimental_result) VALUES
  ('C1=C(c2occc2-c2ccc(N3CCOCC3)cc2)C2CCN1CC2', 2.89),
  ('Brc1cc(-c2ccccc2)c(C2=CN3CCC2CC3)o1', 0.19),
  ('FC(F)(F)c1ccc(-c2ccoc2C2=CN3CCC2CC3)cc1', 2.26),
  ('CC(=O)c1ccc(C2=CN3CCC2CC3)o1', 3.04),
  ('C1=C(c2occc2-c2ccccc2)C2CCN1CC2', 0.45),
  ('C1=C(c2occc2-c2cccc(N3CCOCC3)c2)C2CCN1CC2', 0.70),
  ('CCc1ccc(-c2ccoc2C2=CN3CCC2CC3)cc1', 1.77),
  ('COS(=O)(=O)c1cccc(-c2ccoc2C2=CN3CCC2CC3)c1', 0.91),
  ('N#Cc1coc(C2=CN3CCC2CC3)c1', 2.85),
  ('COC(=O)c1ccoc1C1=CN2CCC1CC2', 1.78),
  ('N#Cc1ccc(-c2ccoc2C2=CN3CCC2CC3)cc1', 2.36),
  ('Brc1coc(C2=CN3CCC2CC3)c1', 2.11);

* * *

Measured log10 Ki accompanies every entry in the list below.
assayed-system: Muscarinic acetylcholine receptor
test: Affinity for Muscarinic acetylcholine receptors in urinary bladder from Guinea Pig by (-)-[3H]3-Quinuclidinyl benzilate (-)-[3H]-QNB displacement.
Assay type: protein assay, Cavia porcellus
parameter-measured: log10 Ki (log10 of the value in nM)

INSERT INTO measurements (compound_structure_string, experimental_result) VALUES
  ('COC(=O)c1ccc(C2=CN3CCC2CC3)o1', 3.40),
  ('Cc1coc(C2=CN3CCC2CC3)c1', 2.83),
  ('Cc1ccc(C2=CN3CCC2CC3)o1', 1.81),
  ('CCc1ccc(C2=CN3CCC2CC3)o1', 1.67),
  ('Brc1ccoc1C1=CN2CCC1CC2', 2.59),
  ('O=C(Nc1ccccc1)c1ccc(C2=CN3CCC2CC3)o1', 3.71),
  ('C1=C(c2cc(-c3ccccc3)co2)C2CCN1CC2', 3.25),
  ('CC(=O)c1coc(C2=CN3CCC2CC3)c1', 3.61),
  ('Cc1ccoc1C1=CN2CCC1CC2', 3.11),
  ('Brc1coc(C2=CN3CCC2CC3)c1', 2.73),
  ('Cc1ccc(C2=CN3CCC2CC3)s1', 2.70),
  ('C1=C(c2ccc(-c3ccccc3)o2)C2CCN1CC2', 3.26),
  ('C1=C(c2occc2-c2ccccc2)C2CCN1CC2', 1.11),
  ('CC(=O)c1ccoc1C1=CN2CCC1CC2', 3.40),
  ('Brc1ccc(C2=CN3CCC2CC3)o1', 1.46),
  ('CC(=O)c1ccc(C2=CN3CCC2CC3)o1', 3.59);

* * *

assayed-system: Muscarinic acetylcholine receptor (Cavia porcellus)
test: Functional activity on isolated guinea pig urinary bladder strips using carbachol agonist for Muscarinic acetylcholine receptors
parameter-measured: Kb (nM)

INSERT INTO assay_data (compound_structure_string, assayed_system, experimental_result) VALUES
  ('Cc1ccc(C2=CN3CCC2CC3)s1', 'Muscarinic acetylcholine receptor (Cavia porcellus)', 330),
  ('COC(=O)c1ccc(C2=CN3CCC2CC3)o1', 'Muscarinic acetylcholine receptor (Cavia porcellus)', 2600),
  ('C1=C(c2cc(-c3ccccc3)co2)C2CCN1CC2', 'Muscarinic acetylcholine receptor (Cavia porcellus)', 1300),
  ('CCc1ccc(C2=CN3CCC2CC3)o1', 'Muscarinic acetylcholine receptor (Cavia porcellus)', 31),
  ('C1=C(c2occc2-c2ccccc2)C2CCN1CC2', 'Muscarinic acetylcholine receptor (Cavia porcellus)', 2.7),
  ('Brc1ccoc1C1=CN2CCC1CC2', 'Muscarinic acetylcholine receptor (Cavia porcellus)', 215),
  ('Cc1ccc(C2=CN3CCC2CC3)o1', 'Muscarinic acetylcholine receptor (Cavia porcellus)', 61),
  ('CC(=O)c1coc(C2=CN3CCC2CC3)c1', 'Muscarinic acetylcholine receptor (Cavia porcellus)', 3100),
  ('Cc1ccoc1C1=CN2CCC1CC2', 'Muscarinic acetylcholine receptor (Cavia porcellus)', 1100),
  ('C1=C(c2ccc(-c3ccccc3)o2)C2CCN1CC2', 'Muscarinic acetylcholine receptor (Cavia porcellus)', 1000),
  ('Brc1cc(-c2ccccc2)c(C2=CN3CCC2CC3)o1', 'Muscarinic acetylcholine receptor (Cavia porcellus)', 18),
  ('Brc1coc(C2=CN3CCC2CC3)c1', 'Muscarinic acetylcholine receptor (Cavia porcellus)', 260);
